Target: human CYP11B2 (Homo sapiens, UniProt P19099)
Construct: mitochondrial fraction
Sequence (P19099 25-503): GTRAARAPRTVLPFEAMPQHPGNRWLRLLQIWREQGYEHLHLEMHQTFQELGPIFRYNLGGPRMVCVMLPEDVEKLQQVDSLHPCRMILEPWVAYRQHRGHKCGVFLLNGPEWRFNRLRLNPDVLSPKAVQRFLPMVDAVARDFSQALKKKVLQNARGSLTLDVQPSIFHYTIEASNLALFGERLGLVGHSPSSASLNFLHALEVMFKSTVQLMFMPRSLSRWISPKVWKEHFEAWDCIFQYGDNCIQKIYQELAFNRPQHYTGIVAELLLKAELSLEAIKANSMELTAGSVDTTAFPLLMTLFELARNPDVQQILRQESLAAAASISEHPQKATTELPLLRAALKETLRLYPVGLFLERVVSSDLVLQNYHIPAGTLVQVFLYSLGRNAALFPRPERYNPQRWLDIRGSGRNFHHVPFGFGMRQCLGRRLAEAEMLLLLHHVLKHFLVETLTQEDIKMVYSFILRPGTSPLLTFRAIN
Test: Inhibitory effect on hCYP11B2: aldosterone production in mitochondrial fraction of V79 cells stably expressing human CYP11B2, HTRF
Conditions: 0.5 μmol/L deoxycorticosterone, 150 μmol/L NADPH, 1.5-2 hours at room temperature
Experimental Endpoint: IC50 (nM)

Solved cases below.
CC(C)NC(=O)CN1CCN(c2cc(-c3ccc(F)cc3)cnn2)CC1; 7
CC(=O)N[C@H]1CC[C@@H](NC(=O)CN2CCN(c3cncc(-c4ccc(F)cc4)n3)CC2)CC1; 8.4
CNC(=O)CN1CCC(NC(=O)CN2CCN(c3cc(-c4ccc(F)cc4)cnn3)CC2)CC1; 18
CC1CCC(c2cncc(N3CCN(CC(=O)NC(C)C)CC3)n2)CC1 (stereo not shown); 18
CC1CCC(c2cncc(N3CCN(CC(=O)NC(C)C)CC3)c2)CC1 (stereo not shown); 17

[a] CS(=O)(=O)CCN1CCC(NC(=O)CN2CCN(c3cc(-c4ccc(F)cc4)cnn3)CC2)CC1
[b] Cc1ccc(-c2cncc(N3CCN(CC(=O)NC4CC5COCC(C4)C5O)CC3)c2)cc1 (stereo not shown)
When their IC50 values are compared, which is larger, a or b ? Identify your selection by its label.
a

----------
biological target: human CYP11B2 (Homo sapiens); construct: mitochondrial fraction; experiment: Inhibitory effect on hCYP11B2: aldosterone production in mitochondrial fraction of V79 cells stably expressing human CYP11B2, HTRF; conditions: 0.5 μmol/L deoxycorticosterone, 150 μmol/L NADPH, 1.5-2 hours at room temperature
Experimental Endpoint: IC50 (nM)

C[C@H](O)CNC(=O)CN1CCN(c2cc(-c3ccc(F)cc3)cnn2)CC1 [Example 63]; 8.8

[P] CC1CCC(c2cnnc(N3CCN(CC(=O)NC(C)C)CC3)c2)CC1 (stereo not drawn) [Example 84]
[Q] O=C(CN1CCN(c2cncc(-c3ccc(Cl)cc3)n2)CC1)NC1CCS(=O)(=O)CC1 [Example 41]
When their IC50 values are compared, which is larger, P or Q ? Identify your selection by its label.
P
(P: 32 nM, Q: 9.6 nM)

----------
target: human CYP11B2 (Homo sapiens, UniProt P19099); construct: mitochondrial fraction; test: Inhibitory effect on hCYP11B2: aldosterone production in mitochondrial fraction of V79 cells stably expressing human CYP11B2, HTRF; details: 0.5 μmol/L deoxycorticosterone, 150 μmol/L NADPH, 1.5-2 hours at room temperature
Experimental Endpoint: IC50 (µM)

CN1CCC(NC(=O)CN2CCN(c3cc(-c4ccc(Cl)cc4)cnn3)CC2)CC1=O (single isomer, unassigned) [Example 91b]; 0.012
CC(C)NC(=O)CN1CCN(c2cc(-c3ccc4c(c3)CCO4)cnn2)CC1; 0.014

[I] O=C(CN1CCN(c2cc(-c3ccc(F)cc3)cnn2)CC1)NCCN1CCS(=O)(=O)CC1
[II] O=C(CN1CCN(c2cc(-c3ccc(F)cc3)cnn2)CC1)NC1CCC(N2CCOCC2)CC1 (stereo not shown)
Which value of IC50 is smaller, the one for I or the one for II ? Identify your selection by its label.
II
(II: 0.011 µM, I: 0.019 µM)

Taken from patent US10717731B2.
